assay: Cmax in BALB/cAnNCrlCrlj mouse at 10 mg/kg, po; format: ADME, organism-based; conditions: in vivo
MEASUREMENT LABEL: Cmax (ng/mL)

>  <COMPOUND>
Cc1cccc(Nc2nc(NC3CCCCC3N)c(C#N)c3cn[nH]c(=O)c23)c1 (configuration not stated)

>  <VALUE REPORTED>
360

$$$$
>  <COMPOUND>
C[C@@H]1CN(c2cccc(Nc3nc(N[C@@H]4CCCC[C@@H]4N)c(C#N)c4cn[nH]c(=O)c34)c2)C[C@H](C)O1

>  <VALUE REPORTED>
630

$$$$

* * *

Below: a set of entries, each annotated with reported Papp at 4 h, 5 µM.
test: Permeability co-efficient of compound at 5 uM incubated for 4 hrs by PAMPA; assay type: ADME; settings: read-out: Peff
MEASUREMENT LABEL: Papp at 4 h, 5 µM

>  <MOLECULE>
C[C@@H]1CN(c2cccc(Nc3nc(N[C@@H]4CCCC[C@@H]4N)c(C#N)c4cn[nH]c(=O)c34)c2)C[C@H](C)O1

>  <MEASUREMENT LABEL>
Papp at 4 h, 5 µM

>  <VALUE REPORTED>
> 50 ×10⁻⁶ cm/s

$$$$
>  <MOLECULE>
Cc1cccc(Nc2nc(NC3CCCCC3N)c(C#N)c3cn[nH]c(=O)c23)c1 (configuration not stated)

>  <MEASUREMENT LABEL>
Papp at 4 h, 5 µM

>  <VALUE REPORTED>
> 50 ×10⁻⁶ cm/s

$$$$
